All values here come from the supplement of paper PMC7877785.

Assay comment: self-splicing fitness, log relative to wild type (ln ratio); higher = more splicing; Tetrahymena group I intron in knt gene, E. coli kanamycin selection, DiMSum; sequences stand for … in CUCUCU…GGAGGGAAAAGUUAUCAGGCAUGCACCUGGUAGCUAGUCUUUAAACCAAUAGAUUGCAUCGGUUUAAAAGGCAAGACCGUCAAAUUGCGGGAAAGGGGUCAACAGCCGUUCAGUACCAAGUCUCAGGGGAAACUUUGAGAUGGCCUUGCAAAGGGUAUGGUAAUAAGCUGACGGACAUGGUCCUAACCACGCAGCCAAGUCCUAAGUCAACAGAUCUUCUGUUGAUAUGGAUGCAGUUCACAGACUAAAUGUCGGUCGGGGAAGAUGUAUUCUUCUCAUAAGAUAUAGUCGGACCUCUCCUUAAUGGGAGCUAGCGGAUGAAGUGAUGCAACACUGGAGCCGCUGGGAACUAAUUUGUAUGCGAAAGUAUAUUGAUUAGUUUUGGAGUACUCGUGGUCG;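 note: selection with 25 µg/mL kanamycin versus none on LB agar overnight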
Measurement conditions: 30 °C
Measurement name: self-splicing fitness (ln)

- Polymer sequence: "CCAGAGCAAUAUUACGACAU"
  Numeric readout: -3.78
- Polymer sequence: "AGCUAGCAAUAUUACGCUGC"
  Numeric readout: -3.59
- Polymer sequence: "ACAAAGCAAUAUUACGGUAC"
  Numeric readout: -3.33
- Polymer sequence: "UUACAGCAAUAUUACGUGGC"
  Numeric readout: -2.87
- Polymer sequence: "AGGCAGCAAUAUUACGACCA"
  Numeric readout: -0.404
- Polymer sequence: "CCCUAGCAAUAUUACGUAAG"
  Numeric readout: -3.8
- Polymer sequence: "CUAGAGCAAUAUUACGAUAU"
  Numeric readout: -3.18
- Polymer sequence: "CAGGAGCAAUAUUACGGUUU"
  Numeric readout: -3.2

* * *

Assay comment: self-splicing fitness, log relative to wild type (ln ratio); higher = more splicing; Tetrahymena group I intron in knt gene, E. coli kanamycin selection, DiMSum; sequences stand for … in CUCUCU…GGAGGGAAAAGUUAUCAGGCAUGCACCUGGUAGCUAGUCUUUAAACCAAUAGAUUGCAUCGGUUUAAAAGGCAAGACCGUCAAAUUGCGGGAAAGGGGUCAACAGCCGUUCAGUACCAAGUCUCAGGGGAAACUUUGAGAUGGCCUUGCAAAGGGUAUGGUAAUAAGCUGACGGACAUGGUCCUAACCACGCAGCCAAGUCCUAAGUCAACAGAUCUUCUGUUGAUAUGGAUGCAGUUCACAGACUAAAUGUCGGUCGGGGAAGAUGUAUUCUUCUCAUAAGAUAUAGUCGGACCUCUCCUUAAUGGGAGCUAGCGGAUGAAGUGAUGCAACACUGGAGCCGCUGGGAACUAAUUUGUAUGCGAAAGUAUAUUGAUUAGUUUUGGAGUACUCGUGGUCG
Measurement conditions: 37 °C
self-splicing fitness (ln) values by entry
Measurement name: self-splicing fitness (ln)

- Polymer sequence: "UAGUAGCAAUAUUACGUGUA"
  Numeric readout: -0.527
- Polymer sequence: "AGGGAGCAAUAUUACGGCAA"
  Numeric readout: -1.8
- Polymer sequence: "GCACAGCAAUAUUACGGCAU"
  Numeric readout: -0.16
- Polymer sequence: "ACGCAGCAAUAUUACGCUUU"
  Numeric readout: -1.15
- Polymer sequence: "GCAGAGCAAUAUUACGUCAU"
  Numeric readout: -1.4
- Polymer sequence: "AGAAAGCAAUAUUACGGCAG"
  Numeric readout: -1.28
- Polymer sequence: "UCACAGCAAUAUUACGGCCA"
  Numeric readout: -1.19
- Polymer sequence: "GCACAGCAAUAUUACGCAAC"
  Numeric readout: -1.03
- Polymer sequence: "UUAGAGCAAUAUUACGCGGU"
  Numeric readout: -2.81
- Polymer sequence: "UGUAAGCAAUAUUACGCCCU"
  Numeric readout: -0.575
- Polymer sequence: "GAACAGCAAUAUUACGUUAG"
  Numeric readout: -0.969
- Polymer sequence: "UUUUAGCAAUAUUACGCAUU"
  Numeric readout: -1.27
- Polymer sequence: "ACUCAGCAAUAUUACGGUGU"
  Numeric readout: -1.34
- Polymer sequence: "CCUAAGCAAUAUUACGUUUA"
  Numeric readout: -3.14
- Polymer sequence: "UAAAAGCAAUAUUACGACUA"
  Numeric readout: 0.733
- Polymer sequence: "CGGCAGCAAUAUUACGCUUA"
  Numeric readout: -0.184

* * *

We begin with a simple list: items and their reported self-splicing fitness (ln).
Assay comment: self-splicing fitness, log relative to wild type (ln ratio); higher = more splicing; Tetrahymena group I intron in knt gene, E. coli kanamycin selection, DiMSum; sequences stand for … in CUCUCU…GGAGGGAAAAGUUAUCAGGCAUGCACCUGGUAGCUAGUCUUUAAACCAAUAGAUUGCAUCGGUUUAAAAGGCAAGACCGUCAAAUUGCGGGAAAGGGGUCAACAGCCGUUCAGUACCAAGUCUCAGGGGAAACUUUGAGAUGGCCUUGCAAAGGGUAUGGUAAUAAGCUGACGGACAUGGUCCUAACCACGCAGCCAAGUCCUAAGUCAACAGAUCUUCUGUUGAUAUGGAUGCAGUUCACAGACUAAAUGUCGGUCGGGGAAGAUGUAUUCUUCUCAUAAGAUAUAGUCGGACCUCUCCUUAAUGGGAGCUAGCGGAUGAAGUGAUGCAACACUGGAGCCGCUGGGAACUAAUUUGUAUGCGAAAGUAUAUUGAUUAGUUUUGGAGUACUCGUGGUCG
Measurement conditions: 37 °C

- Polymer sequence: "GGUAAGCAAUAUUACGCUCA"
  self-splicing fitness (ln): -0.105
- Polymer sequence: "ACAAAGCAAUAUUACGAUAA"
  self-splicing fitness (ln): -1
- Polymer sequence: "UGCCAGCAAUAUUACGGAGA"
  self-splicing fitness (ln): -0.852
- Polymer sequence: "GUUUAGCAAUAUUACGGAGC"
  self-splicing fitness (ln): -2.99
- Polymer sequence: "CAUUAGCAAUAUUACGAUAC"
  self-splicing fitness (ln): -2.23
- Polymer sequence: "CUAGAGCAAUAUUACGAGUA"
  self-splicing fitness (ln): -1.17
- Polymer sequence: "GCCGAGCAAUAUUACGGCAC"
  self-splicing fitness (ln): -1.71
- Polymer sequence: "UGGUAGCAAUAUUACGUCCG"
  self-splicing fitness (ln): -0.449
- Polymer sequence: "UUGUAGCAAUAUUACGAAGG"
  self-splicing fitness (ln): -1.9
- Polymer sequence: "UUACAGCAAUAUUACGGCGU"
  self-splicing fitness (ln): -2.57
- Polymer sequence: "GUGCAGCAAUAUUACGUUCG"
  self-splicing fitness (ln): -0.675
- Polymer sequence: "AACGAGCAAUAUUACGGGAG"
  self-splicing fitness (ln): -2.72
- Polymer sequence: "UGCCAGCAAUAUUACGUCAA"
  self-splicing fitness (ln): -1.08
- Polymer sequence: "GCACAGCAAUAUUACGAUAU"
  self-splicing fitness (ln): -0.54
- Polymer sequence: "GCCGAGCAAUAUUACGACGG"
  self-splicing fitness (ln): -2.76
- Polymer sequence: "UCCGAGCAAUAUUACGGAGU"
  self-splicing fitness (ln): -2.74

* * *

Assay comment: self-splicing fitness, log relative to wild type (ln ratio); higher = more splicing; Tetrahymena group I intron in knt gene, E. coli kanamycin selection, DiMSum; sequences stand for … in CUCUCU…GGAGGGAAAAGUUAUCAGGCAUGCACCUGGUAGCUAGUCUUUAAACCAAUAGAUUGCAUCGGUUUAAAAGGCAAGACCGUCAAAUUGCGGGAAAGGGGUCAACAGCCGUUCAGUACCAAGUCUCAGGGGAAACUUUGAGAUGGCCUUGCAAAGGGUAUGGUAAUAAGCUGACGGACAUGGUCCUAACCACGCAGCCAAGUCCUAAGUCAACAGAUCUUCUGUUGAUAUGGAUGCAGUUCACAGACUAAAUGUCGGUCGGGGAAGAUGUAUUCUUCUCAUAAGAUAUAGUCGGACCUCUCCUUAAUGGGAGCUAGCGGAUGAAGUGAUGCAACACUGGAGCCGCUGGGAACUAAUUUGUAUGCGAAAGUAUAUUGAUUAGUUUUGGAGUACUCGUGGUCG
Measurement conditions: 30 °C
Lab note: compare self-splicing fitness (ln) against -3. Equal or greater, write Satisfied. Smaller, write Not satisfied.

- Polymer sequence: "CAAGAGCAAUAUUACGGCGU"
  Class: "Not satisfied"
- Polymer sequence: "GUGUAGCAAUAUUACGUGGU"
  Class: "Not satisfied"
- Polymer sequence: "ACACAGCAAUAUUACGGGUC"
  Class: "Not satisfied"
- Polymer sequence: "CGUUAGCAAUAUUACGCCCA"
  Class: "Satisfied"
- Polymer sequence: "GUAGAGCAAUAUUACGCGGG"
  Class: "Satisfied"
- Polymer sequence: "GGAGAGCAAUAUUACGGUAC"
  Class: "Not satisfied"
- Polymer sequence: "GAUAAGCAAUAUUACGUUCG"
  Class: "Satisfied"
- Polymer sequence: "CAAGAGCAAUAUUACGCGGG"
  Class: "Satisfied"
- Polymer sequence: "AGACAGCAAUAUUACGUAUU"
  Class: "Satisfied"
- Polymer sequence: "AUAUAGCAAUAUUACGAAUU"
  Class: "Satisfied"
- Polymer sequence: "AUCUAGCAAUAUUACGAUCU"
  Class: "Satisfied"
- Polymer sequence: "ACGAAGCAAUAUUACGCUGU"
  Class: "Satisfied"
- Polymer sequence: "UGAGAGCAAUAUUACGUUCU"
  Class: "Not satisfied"
- Polymer sequence: "UGGUAGCAAUAUUACGAGAG"
  Class: "Not satisfied"
- Polymer sequence: "ACUUAGCAAUAUUACGUGUA"
  Class: "Satisfied"
- Polymer sequence: "ACGUAGCAAUAUUACGGGGG"
  Class: "Not satisfied"
- Polymer sequence: "AGAUAGCAAUAUUACGGUUC"
  Class: "Satisfied"
- Polymer sequence: "GCACAGCAAUAUUACGACCC"
  Class: "Satisfied"
- Polymer sequence: "UUCUAGCAAUAUUACGUGGC"
  Class: "Not satisfied"
- Polymer sequence: "CCGAAGCAAUAUUACGCCGU"
  Class: "Satisfied"
- Polymer sequence: "UAUAAGCAAUAUUACGCUUA"
  Class: "Satisfied"
- Polymer sequence: "CCUCAGCAAUAUUACGAAAG"
  Class: "Satisfied"
- Polymer sequence: "UACAAGCAAUAUUACGGAUC"
  Class: "Satisfied"
- Polymer sequence: "CCCUAGCAAUAUUACGACUG"
  Class: "Not satisfied"
- Polymer sequence: "UUAGAGCAAUAUUACGCGAC"
  Class: "Not satisfied"
- Polymer sequence: "CUAAAGCAAUAUUACGAGCU"
  Class: "Not satisfied"
- Polymer sequence: "CCUCAGCAAUAUUACGGGUU"
  Class: "Not satisfied"
- Polymer sequence: "GGGUAGCAAUAUUACGGGCC"
  Class: "Satisfied"
- Polymer sequence: "AAUCAGCAAUAUUACGAACU"
  Class: "Satisfied"
- Polymer sequence: "GGCUAGCAAUAUUACGCGGC"
  Class: "Not satisfied"
- Polymer sequence: "GAAGAGCAAUAUUACGCUUG"
  Class: "Satisfied"
- Polymer sequence: "GUUGAGCAAUAUUACGGGGU"
  Class: "Not satisfied"
- Polymer sequence: "UAAGAGCAAUAUUACGAUAG"
  Class: "Not satisfied"
- Polymer sequence: "CUUAAGCAAUAUUACGUCUA"
  Class: "Not satisfied"
- Polymer sequence: "AGGGAGCAAUAUUACGGGCA"
  Class: "Not satisfied"
- Polymer sequence: "CCGAAGCAAUAUUACGACGA"
  Class: "Satisfied"
- Polymer sequence: "AGUCAGCAAUAUUACGCAAG"
  Class: "Satisfied"
- Polymer sequence: "CCUUAGCAAUAUUACGCUGA"
  Class: "Not satisfied"
- Polymer sequence: "AAUAAGCAAUAUUACGGCUC"
  Class: "Satisfied"
- Polymer sequence: "GGGUAGCAAUAUUACGUACA"
  Class: "Satisfied"
- Polymer sequence: "AGCGAGCAAUAUUACGAAUG"
  Class: "Not satisfied"
- Polymer sequence: "UACGAGCAAUAUUACGGGCG"
  Class: "Satisfied"
- Polymer sequence: "UCAGAGCAAUAUUACGGGAG"
  Class: "Satisfied"
- Polymer sequence: "GUAGAGCAAUAUUACGCACU"
  Class: "Satisfied"
- Polymer sequence: "CGUGAGCAAUAUUACGAUUC"
  Class: "Not satisfied"
- Polymer sequence: "ACCUAGCAAUAUUACGACUC"
  Class: "Satisfied"
- Polymer sequence: "AAAAAGCAAUAUUACGGCCC"
  Class: "Satisfied"
- Polymer sequence: "UAACAGCAAUAUUACGGGAA"
  Class: "Satisfied"
- Polymer sequence: "GCCUAGCAAUAUUACGAGUC"
  Class: "Satisfied"
- Polymer sequence: "GGGCAGCAAUAUUACGGGCG"
  Class: "Satisfied"
- Polymer sequence: "AGUAAGCAAUAUUACGCAAA"
  Class: "Satisfied"
- Polymer sequence: "UUCCAGCAAUAUUACGCGCG"
  Class: "Satisfied"
- Polymer sequence: "CUGUAGCAAUAUUACGUAAA"
  Class: "Not satisfied"
- Polymer sequence: "AUGCAGCAAUAUUACGGGCU"
  Class: "Satisfied"
- Polymer sequence: "GUCGAGCAAUAUUACGCGGC"
  Class: "Not satisfied"
- Polymer sequence: "AACUAGCAAUAUUACGCCAU"
  Class: "Satisfied"
- Polymer sequence: "GCAAAGCAAUAUUACGCGCA"
  Class: "Satisfied"
- Polymer sequence: "GCGCAGCAAUAUUACGCGCG"
  Class: "Not satisfied"
- Polymer sequence: "AAUUAGCAAUAUUACGAAGU"
  Class: "Satisfied"
- Polymer sequence: "UGGGAGCAAUAUUACGAUCA"
  Class: "Satisfied"
- Polymer sequence: "UAUAAGCAAUAUUACGACAG"
  Class: "Satisfied"
- Polymer sequence: "UUACAGCAAUAUUACGGAGC"
  Class: "Not satisfied"
- Polymer sequence: "GAUUAGCAAUAUUACGUUGG"
  Class: "Not satisfied"
- Polymer sequence: "GCCGAGCAAUAUUACGACUC"
  Class: "Not satisfied"
